Please respond with reported protein stability index for every item in the list.
B1: SFRS1 (parent)
chain: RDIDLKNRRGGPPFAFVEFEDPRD

Variants of: B1
TEST PROTOCOL: protein stability index of a GFP-peptide fusion (GPS, HEK-293T) (PSI 1-6); higher = more stable;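 note: lentivirally expressed fusions sorted by FACS into six bins by GFP to DsRed ratio, PSI derived from sequencing read proportions per bin multiplied by bin number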
RUN PARAMETERS: c terminus: a fixed tail appended
Give bare numbers.

R1G: 4.01
E20D: 3.94
R23E: 4.1
P13M: 4.02

Now look at this entry.
Q: Specify reported protein stability index for the variant shown: P12V
A: 3.9
